Value source: PubChem BioAssay AID1159580

Experiment: chemical genetic growth profiling, strain panel (AID 1159580);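 also: tested at 20 µM; growth read once vehicle control cultures reached saturation at 30 °C; 1 = growth at the plate median or of vehicle wells; lower values mean less growth of the strain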
Conditions: S. cerevisiae deletion strains, growth OD, locus YLR330W, strain CHS5
The campaign covered roughly 5,500 compounds. About 2,000 (36%) were called active. Not shown: some 18% with an inconclusive outcome. Rule as the data show it: active = normalized growth mostly below about 0.91 (no sharp cut-off); inconclusive = no clear call, values can overlap the other calls; inactive = mostly above about 0.92. This is one part of the list.
Write down one outcome, taken from active, inactive

Sample answers from the record:
molecule | labelClass
CCCCCCCCCCCC[C@H](C(=O)O)[C@@H](C)C(=O)O | inactive
C[C@@H]1OC(O[C@H]2[C@H](O)[C@@H](O)[C@H](OC[C@H]3O[C@@H](OC(=O)[C@]45CCC(C)(C)CC4C4=CCC6[C@@]7(C)CC[C@H](OC8OC[C@H](O)[C@H](O)[C@H]8OC8O[C@@H](C)[C@H](O)[C@@H](O)[C@H]8O)[C@@](C)(CO)C7CC[C@@]6(C)[C@]4(C)CC5)[C@H](O)[C@@H](O)[C@@H]3O)O[C@@H]2CO)[C@H](O)[C@H](O)[C@H]1O (stereo not given in full) | inactive
COC(=O)Nc1nc2ccc(Sc3ccccc3)cc2[nH]1 | inactive

Per the assay record, what outcome was assigned to NC12CC3CC(CC(C3)C1)C2 ?
inactive

Per the assay record, what outcome was assigned to CC1(C)CC[C@]2(C(=O)O)CC[C@]3(C)C(=CCC4[C@@]5(C)CC[C@H](O)[C@@](C)(CO)C5CC[C@]43C)C2C1 (stereo not given in full) ?
inactive

Per the assay record, what outcome was assigned to Clc1ccccc1C(c1ccccc1)(c1ccccc1)n1ccnc1 ?
active

Per the assay record, what outcome was assigned to Cc1ccc(-c2cc(C(F)(F)F)nn2-c2ccc(S(N)(=O)=O)cc2)cc1 ?
inactive

Per the assay record, what outcome was assigned to CC(C)=CCCC1(C)C=Cc2c(O)c3c(c(CC=C(C)C)c2O1)OC12C(=CC4CC1C(C)(C)OC2(C/C=C(/C)C(=O)O)C4=O)C3=O (stereo not given) ?
active

Per the assay record, what outcome was assigned to O=C1c2c(O)cccc2Cc2cccc(O)c21 ?
inactive

Per the assay record, what outcome was assigned to O=c1[nH]cc(F)c(=O)[nH]1 ?
inactive

* * *

Test: chemical genetic growth profiling, strain panel (AID 1159580)
Conditions: S. cerevisiae deletion strains, growth OD, locus YNR052C, strain pop2
Among all 5,500 compounds or so, about 2,000 (36%) were called active. Inconclusive results (about 18%) are left out. Cut-off read from the data, not from the text of the source: active = normalized growth mostly below about 0.91 (no sharp cut-off); inconclusive = no clear call, values can overlap the other calls; inactive = mostly above about 0.92. This is one part of the list.
Write down one outcome, taken from 1 = active, -1 = inactive

Sample answers from the record:
molecule | labelClass
CC(=O)O[C@H]1CC[C@@]2(C)C(CC[C@]3(C)C2CC=C2C4CC(C)(C)CC[C@]4(C)CC[C@]23C)C1(C)C (some centres undefined) | -1
COC(=O)Nc1nc2ccc(C(=O)c3ccccc3)cc2[nH]1 | 1
CC(=O)OC1CC[C@@]2(C)C(CC[C@]3(C)C2CCC2C4CC(C)(C)CCC4(C(=O)O)CC[C@]23C)C1(C)C (some centres undefined) | -1

Continue with the next molecule.
Per the assay record, what outcome was assigned to NCCC(=O)N[C@@H](Cc1cnc[nH]1)C(=O)O ?
-1

* * *

Assay: chemical genetic growth profiling, strain panel (AID 1159580)
Conditions: S. cerevisiae deletion strains, growth OD, locus YAL030W, strain snc1, stronger effect = lower value
The whole screen tested about 5,500 compounds, of which about 2,000 (36%) were called active. Roughly 18% stayed inconclusive and do not appear here. The list shows a part of the results.
readoutName: normalized growth
Please reply with the value in numeric form only.

Worked cases, answers included:
molecule | resultNumber
COC(=O)C[C@H]1C(C)(C)C2(O)OC34CC2C(=O)[C@]1(C)C3CC[C@]1(C)C4=CC(=O)O[C@H]1c1ccoc1 (some centres undefined) | 0.99
COc1ccc2c(c1)c(CC(=O)OCC(=O)O)c(C)n2C(=O)c1ccc(Cl)cc1 | 0.99
COC(=O)Nc1nc2ccc(S(=O)c3ccccc3)cc2[nH]1 (centres undefined) | 0.997

Would you mind telling me what normalized growth value was observed for CC(C)(Sc1cc(C(C)(C)C)c(O)c(C(C)(C)C)c1)Sc1cc(C(C)(C)C)c(O)c(C(C)(C)C)c1 ?
1

Would you mind telling me what normalized growth value was observed for CCOC(=O)OC(C)OC(=O)C1N2C(=O)C(NC(=O)[C@H](N)c3ccccc3)C2SC1(C)C (some centres undefined) ?
0.98

Would you mind telling me what normalized growth value was observed for CCCOc1ccccc1-c1nc2n[nH]nc2c(=O)[nH]1 ?
0.995

Would you mind telling me what normalized growth value was observed for COc1cc(C(=O)NCCCCCC(=O)O)cc(OC)c1OC ?
0.959

Would you mind telling me what normalized growth value was observed for COC(=O)Nc1nc2ccc(Sc3ccccc3)cc2[nH]1 ?
0.986

Would you mind telling me what normalized growth value was observed for O=C1c2c(O)cccc2Cc2cccc(O)c21 ?
0.986

* * *

The following compounds are shown together with reported normalized growth values.
Assay: chemical genetic growth profiling, strain panel (AID 1159580)
Conditions: S. cerevisiae deletion strains, growth OD, locus YNL020C, strain ARK1, stronger effect = lower value
Hit rate of the full screen: of about 5,500 compounds, about 2,000 (36%) were called active. Another 18% or so got no clear call; they are omitted. This is one part of the list.
Please reply with the value in numeric form only.

compound | normalized growth
Cc1ccc(S(=O)(=O)n2c(Sc3ccc([N+](=O)[O-])cc3[N+](=O)[O-])nc3cc(C)ccc32)cc1 | 0.898

Would you mind telling me what normalized growth value was observed for O=C(CSCc1csc2ccccc12)Nc1ccc(F)c(Cl)c1 ?
0.887

* * *

Experiment: chemical genetic growth profiling, strain panel (AID 1159580)
Conditions: S. cerevisiae deletion strains, growth OD, locus YBR023C, strain chs3, stronger effect = lower value
The campaign covered roughly 5,500 compounds. About 2,000 (36%) were called active. About 18% were inconclusive and are not listed. Some of the results follow.
The following compounds are shown together with reported normalized growth values.
Please reply with the value in numeric form only.

compound | readoutName | resultNumber
C/C=C(/C)C(=O)OC1CCC2(C)C3CCC4C5(O)CC(O)C6(O)C(CN7CC(C)CCC7C6(C)O)C5(O)CC42OC13O (configuration not stated) | normalized growth | 0.992
C/C=C1\[C@H]2C=C(C)C[C@]1(N)c1ccc(=O)[nH]c1C2 | normalized growth | 1.02
CC(C)=CCCC1(C)C=Cc2c(O)c3c(c(CC=C(C)C)c2O1)OC12C(=CCCC1C(C)(C)O[C@@]2(C/C=C(\C)C(=O)O)C(=O)O)C3=O (some centres not stated) | normalized growth | 0.844
Nc1ccc(S(=O)(=O)c2ccc(N)cc2)cc1 | normalized growth | 0.979
CC(C)CC(N(C)C)C1(c2ccc(Cl)cc2)CCC1 (configuration not stated) | normalized growth | 1.01

Would you mind telling me what normalized growth value was observed for CC(=O)NCc1c(I)c(NC(C)=O)c(I)c(C(=O)O)c1I ?
0.993

Would you mind telling me what normalized growth value was observed for CC(C)(Sc1cc(C(C)(C)C)c(O)c(C(C)(C)C)c1)Sc1cc(C(C)(C)C)c(O)c(C(C)(C)C)c1 ?
0.998

* * *

Assay: chemical genetic growth profiling, strain panel (AID 1159580);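 also: tested at 20 µM; growth read once vehicle control cultures reached saturation at 30 °C; 1 = growth at the plate median or of vehicle wells; lower values mean less growth of the strain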
Conditions: S. cerevisiae deletion strains, growth OD, locus YEL061C, strain CIN8, stronger effect = lower value
Out of some 5,500 compounds screened, about 2,000 (36%) were called active. Not shown: some 18% with an inconclusive outcome. The list shows a part of the results.
The following compounds are shown together with reported normalized growth values.
Please reply with the value in numeric form only.

compound | normalized growth
CC1C(=O)OC2C1CCC1(C)C=CC(=O)C3(C)OC213 (stereo not given) | 1.02

Would you mind telling me what normalized growth value was observed for Cc1ccc(-c2cc(C(F)(F)F)nn2-c2ccc(S(N)(=O)=O)cc2)cc1 ?
0.994

* * *

Assay: chemical genetic growth profiling, strain panel (AID 1159580);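 also: tested at 20 µM; growth read once vehicle control cultures reached saturation at 30 °C; 1 = growth at the plate median or of vehicle wells; lower values mean less growth of the strain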
Settings: S. cerevisiae deletion strains, growth OD, locus YFL029C, strain CAK1, stronger effect = lower value
The whole screen tested about 5,500 compounds, of which about 2,000 (36%) were called active. About 18% were inconclusive and are not listed. The list shows a part of the results.
The following molecules are shown together with reported normalized growth values.
Please reply with the value in numeric form only.

itemSmiles | normalized growth
O=C(c1cccs1)N(Cc1cccnc1)Cc1ccc(Cl)cc1Cl | 0.97
Cc1csc(NC(=O)Nc2ccc(C(F)(F)F)cc2)c1Cl | 0.946
O=C(c1ccc(Cl)cc1)N(Cc1ccccc1)Cc1cccnc1 | 0.996

Would you mind telling me what normalized growth value was observed for Cc1oc(C(C)(C)C)cc1-c1cc(N)n(-c2ccc(I)cc2)n1 ?
0.995

* * *

Experiment: chemical genetic growth profiling, strain panel (AID 1159580);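 also: tested at 20 µM; growth read once vehicle control cultures reached saturation at 30 °C; 1 = growth at the plate median or of vehicle wells; lower values mean less growth of the strain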
Settings: S. cerevisiae deletion strains, growth OD, locus YOL006C, strain TOP1, stronger effect = lower value
Out of some 5,500 compounds screened, about 2,000 (36%) were called active. Another 18% or so got no clear call; they are omitted. The list shows a part of the results.
readoutName: normalized growth

Worked cases, answers included:
molecule | normalized growth
Cc1c(S(=O)(=O)c2ccc(Cl)cc2)cnc2cc(C(C)(C)C)nn12 | 1.06 (inactive)
CCC(C)C(=O)O[C@H]1[C@H](O)C2C(CN3CC(C)CCC3[C@@]2(C)O)C2C[C@]34O[C@]5(O)C(OC(=O)C(C)(O)CC)CC[C@@]3(C)C5C(OC(C)=O)[C@@H](OC(C)=O)C4[C@@]21O (some centres undefined) | 1.01 (inactive)
S=C(NCc1cccnc1)Nc1ccccc1Cl | 1 (inactive)

Switching to the query record.
Would you mind telling me what normalized growth value was observed for COc1ccc2[nH]cc(CCN)c2c1 ?
1.03 (inactive)
